Test system SARS-CoV-2 Main Protease (SARS-CoV-2) (UniProt P0DTD1), IC50 listed for each of the molecules.
Readout kind: IC50 (nM)

INSERT INTO assay_data (molecule, readout_kind, qualifier, measured_value) VALUES
  ('CC(C)(C)c1ccc(N(C(=O)c2nnc(S)[nH]c2=O)C(C(=O)NCCc2cccc(F)c2)c2cccnc2)cc1 (stereo not drawn)', 'IC50', '>', 99500),
  ('Cc1cnc(Nc2cc(Cl)cc(CC(=O)Nc3cncc4ccccc34)c2)c([N+](=O)[O-])c1', 'IC50', '=', 1860),
  ('Cc1ccncc1NC(=O)Cc1cc(Cl)cc(NC2CC2C(F)(F)F)c1 (stereo not drawn)', 'IC50', '=', 25300),
  ('O=C(CC1(C(=O)Nc2cncc3ccccc23)CCOc2ccc(Cl)cc21)N1CCCCC1c1nnc[nH]1 (stereo not drawn)', 'IC50', '=', 437),
  ('O=C(NCCc1cccc(F)c1)C(c1cccnc1)N(C(=O)c1cocn1)c1ccc2c(c1)CCC(=O)N2CC(F)F (stereo not drawn)', 'IC50', '=', 24500),
  ('Cc1cnnn1-c1ccc(N(C(=O)c2cocn2)C(C(=O)NCCc2cccc(F)c2)c2cccnc2)cc1 (stereo not drawn)', 'IC50', '=', 28400),
  ('Cn1cnc2cc(N(C(=O)c3cocn3)C(C(=O)NCCc3cccc(F)c3)c3cccnc3)ccc21 (stereo not drawn)', 'IC50', '>', 99500),
  ('C[C@H]1CN(C(=O)OC(C)(C)C)CCN1c1cc(Cl)cc(CC(=O)Nc2cncc3ccccc23)c1 (stereo in doubt)', 'IC50', '=', 2190),
  ('CC(C)(C)OC(=O)N1CCC(NC(=O)C(c2cccnc2)N(C(=O)c2cocn2)c2ccc(C(C)(C)C)cc2)C1 (stereo not drawn)', 'IC50', '=', 3650),
  ('COc1ccccc1OCCNC(=O)c1cc(N)cc2ccccc12', 'IC50', '>', 99500),
  ('O=C(Cc1cccc(Cl)c1)Nc1cncc2cccc(Cl)c12', 'IC50', '=', 594),
  ('CS(=O)(=O)Cc1ccc(N(C(=O)c2cocn2)C(C(=O)NCCc2cccc(F)c2)c2cccnc2)cc1 (stereo not drawn)', 'IC50', '=', 27700),
  ('O=C(NCCc1cccc(F)c1)C(c1cccnc1)N(C(=O)c1cocn1)c1ccc2ncsc2c1 (stereo not drawn)', 'IC50', '=', 60500),
  ('O=C(Nc1cncc2ccccc12)C1CN(CC(F)(F)F)Cc2ccc(Cl)cc21 (stereo not drawn)', 'IC50', '=', 3410),
  ('CCN(c1ccccc1)S(=O)(=O)c1ccc(OC)c(NC(=O)CCl)c1', 'IC50', '=', 3230),
  ('CC(C)(C)c1ccc(N(C(=O)c2cocn2)C(C(=O)NCCc2cccc(F)c2)c2cncnc2)cc1 (stereo not drawn)', 'IC50', '=', 2920),
  ('COC(=O)CN1Cc2ccc(Cl)cc2C(C(=O)Nc2cncc3ccccc23)C1 (stereo not drawn)', 'IC50', '=', 1550),
  ('Cc1ccc(S(=O)(=O)N2CCN(C(=O)CCl)C[C@H]2C(=O)NCc2ccccc2)cc1 (stereo in doubt)', 'IC50', '=', 3650),
  ('CS(=O)(=O)c1ccc2cncc(NC(=O)C3CNC(=O)c4ccc(Cl)cc43)c2c1 (stereo not drawn)', 'IC50', '=', 2740),
  ('N#Cc1ccc2c(NC(=O)Cc3cccc(Cl)c3)cncc2c1', 'IC50', '=', 9000),
  ('CNC(=O)CN1C[C@@H](C(=O)Nc2cncc3cc(Cl)ccc23)c2cc(Cl)ccc2C1=O (stereo in doubt)', 'IC50', '=', 939),
  ('O=C(Nc1cnc2ccccn12)C1CCNc2cc(Cl)c(Cl)cc21 (stereo not drawn)', 'IC50', '=', 1980),
  ('CCCc1nn(C)c(C(=O)Nc2cc(Cl)cc(CC(=O)Nc3cncc4ccccc34)c2)c1N', 'IC50', '=', 7350),
  ('O=C1CC(Oc2cc(Cl)cc(CC(=O)Nn3cnc4ccccc43)c2)N1 (stereo not drawn)', 'IC50', '=', 82100),
  ('CC1CN(C(=O)CC2(C(=O)Nc3cncc4ccccc34)CCOc3ccc(Cl)cc32)CCN1CCO (stereo not drawn)', 'IC50', '>', 99500),
  ('O=C(NCC(c1ccccc1)c1c[nH]c2ccccc12)c1cnccn1 (stereo not drawn)', 'IC50', '>', 99500),
  ('Cn1ccnc1CN(C(=O)CC1(C(=O)Nc2cncc3ccccc23)CCOc2ccc(Cl)cc21)C1CC1 (stereo not drawn)', 'IC50', '=', 5050),
  ('O=C(Nc1cncc2ccccc12)C12CCC(O1)c1cc(Cl)ccc12 (stereo not drawn)', 'IC50', '=', 2390),
  ('CNC(=O)CN1Cc2ccc(Cl)cc2C(C(=O)Nc2cncc3ccc(C(C)(C)O)cc23)C1 (stereo not drawn)', 'IC50', '=', 564),
  ('O=C(Cc1cc(Cl)cc(Nc2ncnc(Cl)c2Cl)c1)Nc1cncc2ccccc12', 'IC50', '=', 2060),
  ('C[n+]1ccn(CCc2cccc(Cl)c2)c1C#N', 'IC50', '>', 99500),
  ('O=C(Cc1cc(Cl)cc(Nc2ccc(I)cn2)c1)Nc1cncc2ccccc12', 'IC50', '=', 2210),
  ('O=C(Cc1cc(Cl)cc(Nc2ncnc3c2ncn3CCO)c1)Nc1cncc2ccccc12', 'IC50', '=', 1820),
  ('O=C(Cc1cc(Cl)cc(N(C2CCCCC2)C2CCCCC2)c1)Nc1cncc2ccccc12', 'IC50', '=', 2300),
  ('COc1cccc(C2=N/C(=C/c3sccc3C)C(=O)O2)c1', 'IC50', '=', 1170),
  ('Cc1nc2cc(C(=O)NNc3nc4ccncc4s3)ccc2o1', 'IC50', '>', 99500),
  ('Cc1ccc2c(c1)c(CCN)cn2-c1cc(Cl)cc(CC(=O)Nc2cncc3ccccc23)c1', 'IC50', '=', 1630),
  ('CN(CCO)S(=O)(=O)N1Cc2ccc(Cl)cc2C2(CCN(c3cncc4ccccc34)C2=O)C1 (stereo not drawn)', 'IC50', '=', 699);

Where do these numbers come from? They come from the COVID Moonshot data (paper PMC7615835).
